Listed below: relative % inhibition values for each entry.
Tested on: P. falciparum NF54-pfs16-GFP late (IV-V) stage gametocytes
assay_procedure: relative % inhibition of viable gametocyte number; higher = more gametocytocidal
condition_notes: 5 µM; stage: late (IV-V) gametocyte; incubation 72 h

{"columns": ["molecule", "readout_units", "relative % inhibition"],
 "data": [
  ["COc1ccc(C2=C(c3ccc(OC)cc3)C3(c4ccccc4)C(=O)C2(c2ccccc2)C2C(=O)N(c4ccc(C)cc4)C(=O)C23)cc1 (stereo unspecified)", "%", 28.5],
  ["CCOc1ccc(-n2cc(-c3ccccc3)c3c(SCc4cc(C)ccc4C)ncnc32)cc1", "%", 19.7],
  ["COc1ccc2nc(C)cc(Nc3ccccc3O)c2c1", "%", 18.4],
  ["CC(C)CNC(=O)c1c(N)n(CCc2ccccc2F)c2nc3ccccc3nc12", "%", 8.27],
  ["CC(C)(C)C(=O)Nc1ccc(C(=O)Nc2cccc(-c3nc4ccccc4[nH]3)c2)cc1", "%", 17.3],
  ["Cc1cc(Nc2ccc3ccccc3c2)n2ncnc2n1", "%", 8.91],
  ["CC1CC(C)CN(C(=O)c2ccc(Cl)cc2Cl)C1 (stereo unspecified)", "%", 3.37],
  ["CCN(CC)CCNc1ncnc2c1[nH]c1ccc(Cl)cc12", "%", 24.8],
  ["COc1ccc(C2N(C)c3ccccc3N2C)cc1", "%", -2.47],
  ["COc1cccc(C(=O)Nc2ccc(-c3nc4ccccc4[nH]3)cc2)c1", "%", -5.77],
  ["COc1ccc(Nc2nc(NN=Cc3ccc(O)cc3)nc(Nc3ccc([N+](=O)[O-])cc3)n2)cc1", "%", 31.8],
  ["CCc1ccc(Nc2cc(C)nc3nc(C)nn23)cc1", "%", 16.9],
  ["COc1cccc(Nc2nc(N)c3ccccc3n2)c1", "%", 1.59],
  ["N=c1c2ccccc2nnn1-c1cccc(C(F)(F)F)c1", "%", 46.2],
  ["CCOc1cccc(C(=O)Nc2ccc(-c3nc4ccccc4[nH]3)cc2)c1", "%", 17.9],
  ["CN(C)c1ccc(N2C(N)=NC(N)=NC2(C)C)cc1", "%", -8.27],
  ["COc1ccc(CCn2c(=N)c(C(=O)NCc3cccnc3)cc3c(=O)n4cccc(C)c4nc32)cc1", "%", 11.2],
  ["COc1cccc(Cn2c(Oc3ccccc3)nc3c2c(=O)n(C)c(=O)n3C)c1", "%", 9.52],
  ["C[n+]1c2ccccc2nc2ccc(NCCO)cc21", "%", 4.26],
  ["CCCCCCc1cc2cc(-c3csc(C=Cc4ccccc4)n3)c(=O)oc2cc1O", "%", 104],
  ["COc1ccc(OC)c(C2C3=C(CC(C)(C)CC3=O)N(c3ccc(Cl)c(Cl)c3)C3=C2C(=O)CC(C)(C)C3)c1", "%", 79.2]
]}

----------
Test system: P. falciparum NF54-pfs16-GFP early (I-III) stage gametocytes
assay_procedure: relative % inhibition of viable gametocyte number; higher = more gametocytocidal
condition_notes: 5 µM; stage: early (I-III) gametocyte; incubation 72 h

{"columns": ["compound", "relative % inhibition"],
 "data": [
  ["N=c1c2ccccc2nnn1-c1cccc(C(F)(F)F)c1", "17.4%"],
  ["COc1ccc(C2N(C)c3ccccc3N2C)cc1", "30.9%"],
  ["COc1ccc(-c2nonc2NC(=O)c2cccc(Cl)c2)cc1OC", "-10.8%"],
  ["Cc1ccc(C2CC(C(F)(F)F)n3nc(C(=O)N4CCN(C(c5ccccc5)c5ccccc5)CC4)cc3N2)cc1 (stereo not given)", "13.2%"],
  ["CCOC(=O)c1c(C)n(-c2ccccc2)c2ccc(OC(=O)c3cc(OC)c(OC)c(OC)c3)cc12", "-2.44%"]
]}
